Provenance of the data: patent US7205382B2

Test system: immunoglobulins in human plasma
Experiment: Cellulose-immobilized 13-mer peptide variants incubated with human plasma, anti-human IgG-AP detection
Assay type: binding
Design: key: No binding of immunoglobulin for the defined peptide variant, detection negative: 0; Binding of immunoglobulin for the defined peptide variant, detection positive: +
Settings: human plasma as sample, diluted 1:10,000 in blocking buffer, 3 h room temperature
Bridge positions count the residues as written; N and C are the ends. Square brackets hold non-standard residues; d marks the D form. Ends that are not written are not given here. cellulose = not defined here; βAla = NCCC(=O)O
measured parameter: Result for incubation with human plasma (immunoglobulin binding detection)

[[record]]
substance = "10L: cellulose-bound 13-mer variant DCAWHLGELLWCT-(βA)(βA) (DCAWHLGELLWCT-{βAla-βAla-cellulose}; disulfide 2-12 (inferred); reading uncertain; also: printed as DCAWHLGELLWCT-(βA)(βA))"
readout_value = 0

[[record]]
substance = "05D: cellulose-bound 13-mer variant DCAWDLGELVWCT-(βA)(βA) (disulfide 2-12 (inferred); not fully specified (N-terminus, C-terminus); printed as DCAWDLGELVWCT-(βA)(βA); also: cellulose-bound)"
readout_value = 0

[[record]]
substance = "09A: cellulose-bound 13-mer variant DCAWHLGEAVWCT-(βA)(βA) (DCAWHLGEAVWCT-{βAla-βAla-cellulose}; disulfide 2-12 (inferred); reading uncertain; also: printed as DCAWHLGEAVWCT-(βA)(βA))"
readout_value = 0

[[record]]
substance = "04P: cellulose-bound 13-mer variant DCAPHLGELVWCT-(βA)(βA) (disulfide 2-12 (inferred); not fully specified (N-terminus, C-terminus); printed as DCAPHLGELVWCT-(βA)(βA); also: cellulose-bound)"
readout_value = 0

[[record]]
substance = "12H: cellulose-bound 13-mer variant DCAWHLGELVWHT-(βA)(βA) (DCAWHLGELVWHT-{βAla-βAla-cellulose}; not fully specified; printed as DCAWHLGELVWHT-(βA)(βA); reading uncertain)"
readout_value = 0

[[record]]
substance = "01Y: cellulose-bound 13-mer variant YCAWHLGELVWCT-(βA)(βA) (YCAWHLGELVWCT-{βAla-βAla-cellulose}; disulfide 2-12 (inferred); reading uncertain; also: printed as YCAWHLGELVWCT-(βA)(βA))"
readout_value = 0

[[record]]
substance = "03V: cellulose-bound 13-mer variant DCVWHLGELVWCT-(βA)(βA) (DCVWHLGELVWCT-{βAla-βAla-cellulose}; disulfide 2-12 (inferred); reading uncertain; also: printed as DCVWHLGELVWCT-(βA)(βA))"
readout_value = 0

[[record]]
substance = "05V: cellulose-bound 13-mer variant DCAWVLGELVWCT-(βA)(βA) (disulfide 2-12 (inferred); not fully specified (N-terminus, C-terminus); printed as DCAWVLGELVWCT-(βA)(βA); also: cellulose-bound)"
readout_value = 0

[[record]]
substance = "11T: cellulose-bound 13-mer variant DCAWHLGELVTCT-(βA)(βA)"
readout_value = 0

[[record]]
substance = "07S: cellulose-bound 13-mer variant DCAWHLSELVWCT-(βA)(βA) (DCAWHLSELVWCT-{βAla-βAla-cellulose}; disulfide 2-12 (inferred); not fully specified (N-terminus); printed as DCAWHLSELVWCT-(βA)(βA); reading uncertain)"
readout_value = 0

[[record]]
substance = "05Y: cellulose-bound 13-mer variant DCAWYLGELVWCT-(βA)(βA) (DCAWYLGELVWCT[βAla][βAla]; disulfide 2-12 (inferred); not fully specified (N-terminus); printed as DCAWYLGELVWCT-(βA)(βA); also: cellulose-bound)"
readout_value = 0

[[record]]
substance = "10F: cellulose-bound 13-mer variant DCAWHLGELFWCT-(βA)(βA) (DCAWHLGELFWCT-{βAla-βAla-cellulose}; disulfide 2-12 (inferred); reading uncertain; also: printed as DCAWHLGELFWCT-(βA)(βA))"
readout_value = 0

[[record]]
substance = "09V: cellulose-bound 13-mer variant DCAWHLGEVVWCT-(βA)(βA) (DCAWHLGEVVWCT-{βAla-βAla-cellulose}; disulfide 2-12 (inferred); reading uncertain; also: printed as DCAWHLGEVVWCT-(βA)(βA))"
readout_value = 0

[[record]]
substance = "07P: cellulose-bound 13-mer variant DCAWHLPELVWCT-(βA)(βA) (DCAWHLPELVWCT-{βAla-βAla-cellulose}; disulfide 2-12 (inferred); not fully specified (N-terminus); printed as DCAWHLPELVWCT-(βA)(βA); reading uncertain)"
readout_value = 0


* * *

Tested on: human IgG-Fc
Experiment: Cellulose-immobilized 13-mer peptide variants incubated with human IgG-Fc, anti-human IgG-AP detection
Type: binding
Set-up: key: No binding of immunoglobulin for the defined peptide variant, detection negative: 0; Binding of immunoglobulin for the defined peptide variant, detection positive: +
Details: IgG-Fc 1 μg/ml in blocking buffer, 3 h room temperature
Bridge positions count the residues as written; N and C are the ends. Ends that are not written are not given here. cellulose = not defined here; βAla = NCCC(=O)O
measured parameter: Result for incubation with human IgG-Fc (immunoglobulin binding detection)

[[record]]
substance = "11Y: cellulose-bound 13-mer variant DCAWHLGELVYCT-(βA)(βA)"
system_name = "human IgG-Fc"
readout_value = 0

[[record]]
substance = "07V: cellulose-bound 13-mer variant DCAWHLVELVWCT-(βA)(βA) (DCAWHLVELVWCT-{βAla-βAla-cellulose}; disulfide 2-12 (inferred); not fully specified (N-terminus); printed as DCAWHLVELVWCT-(βA)(βA); reading uncertain)"
system_name = "human IgG-Fc"
readout_value = 0

[[record]]
substance = "03C: cellulose-bound 13-mer variant DCCWHLGELVWCT-(βA)(βA) (DCCWHLGELVWCT-{βAla-βAla-cellulose}; disulfide (positions not given here); not fully specified; printed as DCCWHLGELVWCT-(βA)(βA); reading uncertain)"
system_name = "human IgG-Fc"
readout_value = 0


* * *

The substances listed here are annotated with their Result for incubation with human plasma (immunoglobulin binding detection).
System: immunoglobulins in human plasma
Test: Cellulose-immobilized 13-mer peptide variants incubated with human plasma, anti-human IgG-AP detection
Type: binding
Design: key: No binding of immunoglobulin for the defined peptide variant, detection negative: 0; Binding of immunoglobulin for the defined peptide variant, detection positive: +
Settings: human plasma as sample, diluted 1:10,000 in blocking buffer, 3 h room temperature
Bridge positions count the residues as written; N and C are the ends. Square brackets hold non-standard residues; d marks the D form. Ends that are not written are not given here. cellulose = not defined here; βAla = NCCC(=O)O
measured parameter: Result for incubation with human plasma (immunoglobulin binding detection)

[[record]]
substance = "06F: cellulose-bound 13-mer variant DCAWHFGELVWCT-(βA)(βA) (DCAWHFGELVWCT[βAla][βAla]; disulfide 2-12 (inferred); not fully specified (N-terminus); printed as DCAWHFGELVWCT-(βA)(βA); also: cellulose-bound)"
readout_value = 0

[[record]]
substance = "10C: cellulose-bound 13-mer variant DCAWHLGELCWCT-(βA)(βA) (DCAWHLGELCWCT-{βAla-βAla-cellulose}; not fully specified (bridges); printed as DCAWHLGELCWCT-(βA)(βA); cysteine pairing not given here; reading uncertain)"
readout_value = 0

[[record]]
substance = "06V: cellulose-bound 13-mer variant DCAWHVGELVWCT-(βA)(βA) (DCAWHVGELVWCT-{βAla-βAla-cellulose}; disulfide 2-12 (inferred); not fully specified (N-terminus); printed as DCAWHVGELVWCT-(βA)(βA); reading uncertain)"
readout_value = 0


* * *

Tested on: human IgG-Fc
Assay: Cellulose-immobilized 13-mer peptide variants incubated with human IgG-Fc, anti-human IgG-AP detection
Assay type: binding
Design: key: No binding of immunoglobulin for the defined peptide variant, detection negative: 0; Binding of immunoglobulin for the defined peptide variant, detection positive: +
Conditions: IgG-Fc 1 μg/ml in blocking buffer, 3 h room temperature
Bridge positions count the residues as written; N and C are the ends. Ends that are not written are not given here. cellulose = not defined here; βAla = NCCC(=O)O
measured parameter: Result for incubation with human IgG-Fc (immunoglobulin binding detection)

[[record]]
substance = "04T: cellulose-bound 13-mer variant DCATHLGELVWCT-(βA)(βA) (disulfide 2-12 (inferred); not fully specified (N-terminus, C-terminus); printed as DCATHLGELVWCT-(βA)(βA); also: cellulose-bound)"
readout_value = "+"

[[record]]
substance = "08I: cellulose-bound 13-mer variant DCAWHLGILVWCT-(βA)(βA) (DCAWHLGILVWCT-{βAla-βAla-cellulose}; disulfide 2-12 (inferred); not fully specified (N-terminus); printed as DCAWHLGILVWCT-(βA)(βA); reading uncertain)"
readout_value = 0

[[record]]
substance = "11P: cellulose-bound 13-mer variant DCAWHLGELVPCT-(βA)(βA)"
readout_value = 0

[[record]]
substance = "01A: cellulose-bound 13-mer variant ACAWHLGELVWCT-(βA)(βA) (ACAWHLGELVWCT-{βAla-βAla-cellulose}; disulfide 2-12 (inferred); reading uncertain; also: printed as ACAWHLGELVWCT-(βA)(βA))"
readout_value = "+"

